Reference source: the supplement of paper PMC9170038

Test system: K4 kissing-loop RNA reporter;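 further: bound reporter read as fluorescence of individual clusters on recovered sequencing chips by microscopy, with normalized cluster intensities fitted with a binding model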
Test: apparent KD of K4 kissing-loop reporter; higher = weaker reporter binding
Settings: Eterna round: R107; input ligand: arginine 13.2 mM
Binary classification by apparent KD of K4 kissing-loop reporter, with 300 nM as an inclusive lower bound for Fulfilled; all other cases are Not fulfilled.

CAUACGCAUGGAGGAUAUGAGAUUACUCAUAUCAUUUAAUAUUCUCAGUGAUGUUGAGAUUUAGGCUCAGAAGGCCAUGUGUAUG [Ex FMN B 14]: Fulfilled
UGUACCGAGUCAGGAUAUGGCGUCGAAAGACGAAACCAGUGAUGUUGGAAUAUCGACGAAAGUCGUCCAGAAGGGACUUGGUACU [FmnBS 17 #SwitchBubble #StaticStem #DoubleMagnetSystem]: Not fulfilled
UAUCGAGUGAUGUUCGAUGUAGUCCAUUCAGAGGAUAUAGGAUUGACUAGAAGGCUGAAACCUUCUUCGAGUGAUGUUCGAGGAU [Same State FMN A GF4]: Not fulfilled
CCAUCGCUAUUCGAUACCAGCUACUUAGUGAUGUUAAGUUUAAAUCCACUGUAGGUGGAAAGCCCUUGGCAGCGAAUAGUGAUGG [Theophylline B K4 24]: Not fulfilled
GCCUACGCUGCAGGAUAUAGUUACAGCGACUUAGCCGUUGUAUGUCCAUGGUUCAGUGAUGUUGAACUAGAAGGGCAGCGUAGGC [#02 K4 FMN B Exclusion]: Not fulfilled
AGUACAAUGGCGGCCGCCACUCAACAGCAGAUCAAAGAUCUGCUUCACUCAGUGAUGUUGAGUGAGAGGACCGGGCCUUUGUACA [Omei KL Tryp B SS B v4]: Fulfilled

----------
Tested on: MS2 coat protein
Assay: apparent KD of MS2 coat protein; designed switch direction (-1 OFF switch, 1 ON switch): 1; higher = weaker reporter binding
Conditions: Eterna round: R95; input ligand: none
apparent KD of MS2 coat protein values for the sequences below.
readout-label: apparent KD of MS2 coat protein (nM)

UUAAGCCACGGGCAGGAUAUGUAUUAAAAUACAUGAGGAUCACCCAUGUGCAGGUGUAACACCUGACAGAAGGGCCAAUCGAGGC [Soteed - 6] (puzzle: Same State 2): 284
AGUCCAGCCUGAGCUGGACAAAAGCGUGUACAUGAGGAUCACCCAUGUCAUGUACAAGCUUUUUGCUCGUCUUAAUA [Zipper 49 - 6] (puzzle: Sensor for hsa-mir-208a): 83.1
GUAGAUAUAACGGAGGAUAUUCAAUGAGAGACAUGAGGAUCACCCAUGUAAGAGUGAGAUGAUAGGAAGAAGGCUGAGAGAGAUG [Altered State 2-9 - Jieux - Same State 2] (puzzle: Same State 2): 102
AGCUAUCGAAAACGAUAGCAAAAGCGUGUACAUGAGGAUCACCCAUGUCAUGUACAAGCUUUUUGCUCGUCUUAAAA [Zipper 23 - 6] (puzzle: Sensor for hsa-mir-208a): 41.8
GUAAAACAUGAGGAUCACCCAUGUAAUAAUAUGGGAGGAUAUCAGAUUUAAUUUAAUUUAUGAGAAGGCCUAAAUU [Mat - Same State 1 - Mod of Eli - D62] (puzzle: Same State 1): 596
GGCAUGCGGCGUACCGUAUGCUGGUAUGUACAUGAGGAUCACCCAUGUCAUGUACAGGCUUUUUGCUCGUCUUAUUG [JL-shm-2.40 JL mod] (puzzle: Sensor for hsa-mir-208a): 157
UGAGCCGGCACUGAGGAUAUUCAUAAUAAAACAUGAGGAUCACCCAUGUAGGCCAGAAGGCCUUGGGAGAAGGCAGGUCGGCUCA [Mat - Same State 2 - Mod of UCT - D71] (puzzle: Same State 2): 247
AACAAUCUAUCUGAGGAUAUCAUGAAAUAAACAUGAGGAUCACCCAUGUGCAGGAAAACUGCAUAUGAGAAGGUAGAUAGAUUGA [salish99_ss2_r3_050] (puzzle: Same State 2): 218
UAUAAACAUGAGGAUCACCCAUGUAAUAAUAUGGGAGGAUAUCAGAUUUAAUUUAAUUUAUGAGAAGGCCUAAUAU [Mat - Same State 1 - Mod of Eli - D66] (puzzle: Same State 1): 825
AGUCCAGCCUGAGCUGGACAAAAGCAUGUACAUGAGGAUCACCCAUGUCAUGUACAAGCUUUUUGUUCGUCUUAAUA [Zipper 49 - 13] (puzzle: Sensor for hsa-mir-208a): 350
